- Organism: Oryctolagus cuniculus
- Assay notes: Compound was tested for its ability to release [Ca2+] from permeabilised rabbit platelets.
- Type: functional, organism-based
- Condition notes: Oryctolagus cuniculus
Readout label: pEC50
Answers are plain numbers, as −log10 of the molar value.

Input line: # get_value(readout='pEC50', item= O=P(O)(O)OC1[C@@H](O)C(CO)C(OP(=O)(O)O)[C@H](OP(=O)(O)O)[C@@H]1O (stereo partly specified) )
Output line: 6.36
